Data provenance is patent US8119624B2.

Listed molecules paired with reported activation at 10 µM
Biological target: Full-length glucokinase (beta cell isoform) (Homo sapiens)
Construct: Full-length glucokinase (beta cell isoform) was His-tagged at N-terminus; His tag (N); made in house
Sequence (P35557 whole entry, species assumed, canonical isoform): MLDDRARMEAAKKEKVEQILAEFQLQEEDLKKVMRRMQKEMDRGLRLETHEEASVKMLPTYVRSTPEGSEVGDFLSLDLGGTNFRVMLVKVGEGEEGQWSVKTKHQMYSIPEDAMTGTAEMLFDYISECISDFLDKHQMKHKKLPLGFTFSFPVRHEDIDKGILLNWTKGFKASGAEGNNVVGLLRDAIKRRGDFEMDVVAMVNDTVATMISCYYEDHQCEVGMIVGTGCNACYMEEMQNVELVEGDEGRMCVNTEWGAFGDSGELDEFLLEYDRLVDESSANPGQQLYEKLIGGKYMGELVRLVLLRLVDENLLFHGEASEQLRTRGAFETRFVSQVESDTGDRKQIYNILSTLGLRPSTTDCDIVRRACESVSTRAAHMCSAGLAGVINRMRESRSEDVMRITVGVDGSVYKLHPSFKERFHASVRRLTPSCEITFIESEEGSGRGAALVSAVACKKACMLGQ
Test: Glucokinase biochemical assay (PK/LDH-coupled, NADH depletion at 340 nm): % activation, EC50, % max activation
Details: 10 uM compound; 5 mM glucose; % Activation=(Va/Vo−1)×100; read-out: % Activation at 10 uM

molecule: CNC(=O)c1ccc(Oc2cc(C(=O)Nc3ccn(C)n3)cc3c2CC(C)(C)O3)cc1F [Example 69]
activation at 10 µM (%): 122
--
molecule: Cc1cc2cc(Oc3ccc(S(C)(=O)=O)cc3)cc(C(=O)Nc3ccn(C)n3)c2o1 [Example 4]
activation at 10 µM (%): 14.6
--
molecule: COCCNC(=O)c1ccc(Oc2cc(C(=O)Nc3ccn(C)n3)cc3c2CC(C)(C)O3)cc1F [Example 68]
activation at 10 µM (%): 146
--
molecule: Cc1cc2c(Oc3ccc(S(C)(=O)=O)cc3)cc(C(=O)Nc3cccc(C(C)O)n3)cc2o1 (centres unmarked) [Example 269]
activation at 10 µM (%): 34.8
--
molecule: CC1(C)Cc2c(Oc3ccc(S(C)(=O)=O)cc3)cc(C(=O)Nc3ccccn3)cc2O1 [Example 19]
activation at 10 µM (%): 139
--
molecule: CN(C)C(=O)c1ccc(Oc2cc(C(=O)Nc3cc[nH]n3)cc3c2CC(C)(C)O3)cc1 [Example 152]
activation at 10 µM (%): 90.7
--
molecule: COCc1nnc(NC(=O)c2cc(Oc3ccc(S(C)(=O)=O)cc3)c3c(c2)OC(C)(C)C3)s1 [Example 30]
activation at 10 µM (%): 144
--
molecule: Cn1ccc(NC(=O)c2cc(Oc3ccc(C(=O)Nc4ccn(C)n4)nc3)c3c(c2)OC(C)(C)C3)n1 [Example 163]
activation at 10 µM (%): 118
